- Assay target: Pdr3 (UniProt P33200)
- Sequence: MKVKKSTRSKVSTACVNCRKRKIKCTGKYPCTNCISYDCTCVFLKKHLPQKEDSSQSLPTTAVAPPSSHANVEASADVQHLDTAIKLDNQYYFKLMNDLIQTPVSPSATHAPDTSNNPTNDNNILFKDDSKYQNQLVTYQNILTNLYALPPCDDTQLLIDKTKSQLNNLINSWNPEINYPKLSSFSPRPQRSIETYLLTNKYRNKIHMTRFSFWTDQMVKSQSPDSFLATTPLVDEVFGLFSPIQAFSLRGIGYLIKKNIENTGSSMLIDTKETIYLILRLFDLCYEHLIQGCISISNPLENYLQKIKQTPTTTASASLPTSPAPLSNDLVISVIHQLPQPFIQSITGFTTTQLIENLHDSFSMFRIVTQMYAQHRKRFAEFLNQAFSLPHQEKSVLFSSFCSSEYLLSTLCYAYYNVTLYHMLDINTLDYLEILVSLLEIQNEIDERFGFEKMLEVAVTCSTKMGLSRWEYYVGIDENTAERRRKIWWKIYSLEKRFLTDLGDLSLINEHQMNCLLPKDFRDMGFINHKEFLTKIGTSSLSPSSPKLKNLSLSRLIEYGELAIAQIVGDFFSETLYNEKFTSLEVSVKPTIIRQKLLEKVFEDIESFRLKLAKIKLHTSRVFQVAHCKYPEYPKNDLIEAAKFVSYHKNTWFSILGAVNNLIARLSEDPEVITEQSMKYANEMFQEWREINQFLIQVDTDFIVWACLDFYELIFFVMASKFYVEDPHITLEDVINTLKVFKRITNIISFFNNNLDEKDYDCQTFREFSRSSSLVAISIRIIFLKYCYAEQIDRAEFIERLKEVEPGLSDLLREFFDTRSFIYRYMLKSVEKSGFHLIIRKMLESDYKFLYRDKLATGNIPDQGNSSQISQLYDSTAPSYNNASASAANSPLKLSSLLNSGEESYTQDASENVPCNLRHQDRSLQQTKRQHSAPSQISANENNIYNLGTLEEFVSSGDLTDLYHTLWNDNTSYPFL
- Method summary: PBM E-score (8-mer binding enrichment) (E-score (-0.5 to 0.5)); higher = stronger / more preferred TF binding
- Experimental conditions: protein concentration: 200 nM; construct: GST-full length
In all, about 33,000 sequences were measured (“E-score (-0.5 to 0.5)”: median about -0.035, highest 2% from about 0.35 on). The full list was thinned out, with the highest values kept by preference.
The following ranges of PBM E-score define the classes used here: low class (below 0.05), middle class (0.05 to below 0.3), high class (0.3 or more)

Residues | Class
ACATGAGG | low class
AGCCCGGC | middle class
GAGGGTTA | low class
AAGGGGAG | low class
CCATCCCG | high class

Exercise: Which PBM E-score band matches `ATATCCCA` ?
Solution: middle class

Exercise: What do you get for `ATATCCCC` ?
Solution: low class

Exercise: Param item: `AAGGGTCC`
Solution: middle class

Exercise: Now consider `ACATCCCC` and answer again.
Solution: middle class

Exercise: Request: `CCTATCCC`
Solution: middle class

Exercise: What do you have for `GGCCCGGA` ?
Solution: high class

Exercise: Try `AGGCTAAA` next.
Solution: low class

Exercise: Now consider `AGTCGGCC` .
Solution: middle class

Exercise: Another sequence to look at: `ACATCCCG`
Solution: high class

Exercise: Query `CTCGCTGC` next
Solution: low class

Exercise: Try this sequence next: `CAAGGGCA`
Solution: low class

Exercise: For `CGCCCGGA` then?
Solution: high class

Exercise: Now the same for `ATGTCCGA`
Solution: middle class

Exercise: Next entry: `GCCCGGGA`
Solution: high class

Exercise: Moving on to the next sequence: `AGCCCGGA`
Solution: high class
